target.under.test: Human CXCR4 transfected HEK293 cells (Homo sapiens)
Sequence (P61073 whole entry): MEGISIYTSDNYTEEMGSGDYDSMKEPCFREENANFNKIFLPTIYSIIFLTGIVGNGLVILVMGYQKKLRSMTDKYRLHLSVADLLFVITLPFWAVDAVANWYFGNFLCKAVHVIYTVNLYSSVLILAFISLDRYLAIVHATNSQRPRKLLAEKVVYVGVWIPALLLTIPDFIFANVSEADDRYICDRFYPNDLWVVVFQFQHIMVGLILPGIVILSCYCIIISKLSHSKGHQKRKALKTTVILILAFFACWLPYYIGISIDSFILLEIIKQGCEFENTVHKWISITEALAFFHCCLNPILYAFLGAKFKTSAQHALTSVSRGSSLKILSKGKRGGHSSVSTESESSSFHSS
method.summary: CXCR4 functional calcium assay (calcium flux FLIPR, antagonism of SDF1 response)
condition.context: CXCR4 functional activity, antagonism of SDF1 (EC50 concentration), read-out: CXCR4 fKi
Protocol: The functional activity of test compounds was routinely tested by measuring the ability of compounds to antagonize CXCR4 activity in a dose dependent manner, using a calcium flux Fluorescent Imaging Plate Reader FLIPR assay. […] A combined agonist/antagonist protocol was used to measure changes in intracellular calcium concentration. Compound (antagonist) was added to the cell plate using a Fluorometric Imaging Plate Reader (FLIPR) (Molecular Devices, Sunnyvale, Calif., USA). […]
pKi: −log10 of the molar value.
readout: pKi

- compound: "C[C@@H](N1CCC(N2CCCN(c3cccc(C(=O)Nc4ccncc4)n3)CC2)CC1)C(F)(F)F"
  readout: "pKi"
  value.reported: "> 7.70"
- compound: "Cc1nc(-c2cccc(N3CCN(C4CCCN(C5CCCC5)CC4)CC3)n2)[nH]c1C1CC1 (stereo not shown)"
  readout: "pKi"
  value.reported: "7.00 to 7.70"
- compound: "CC(C)(C)N1CCC(N2CCCN(c3cccc(C(=O)Nc4ccncc4)n3)CC2)CC1"
  readout: "pKi"
  value.reported: "> 7.70"

We next turn to a different compound, shown below.
Q. Return the recorded pKi value; entry: Cc1nc(-c2cccc(NCCNC3CCN(C(C)C)CC3)n2)[nH]c1C1CC1
A. 6.30 to 7.00
